Tested on: Blumeria graminis f. sp. tritici
Assay: Antifungal activity against Blumeria graminis f. sp. tritici infected seven-day-old wheat seedlings assessed as disease control at 12.5 mg/l after 7 days relative to control
Type: functional
Measured Attribute: Activity (%)
API: value field is a number in %; no unit string.

Some solved entries appear below for comparison.
INSERT INTO measurements (compound, measured_attribute, observed) VALUES
  ('CO/C=C(/C(=O)OC)c1ccccc1COc1cc(-c2ccc(Cl)cc2)nn1C [PYRAOXYSTROBIN]', 'Activity', 75),
  ('CO/C=C(/C(=O)OC)c1ccccc1COc1cc(-c2ccc(Br)cc2)nn1C', 'Activity', 100),
  ('CO/C=C(/C(=O)OC)c1ccccc1COc1cc(-c2ccc([N+](=O)[O-])cc2)nn1C', 'Activity', 100),
  ('CO/C=C(/C(=O)OC)c1ccccc1COc1c(C)c(-c2ccc(C)cc2)nn1C', 'Activity', 100),
  ('CO/C=C(/C(=O)OC)c1ccccc1COc1c(C)c(-c2ccccc2)nn1C', 'Activity', 100),
  ('CCOc1ccc(-c2nn(C)c(OCc3ccccc3/C(=C\OC)C(=O)OC)c2C)cc1', 'Activity', 100);

Value wanted: Activity (Blumeria graminis f. sp. tritici) of entry `CO/C=C(/C(=O)OC)c1ccccc1COc1cc(-c2ccc(Cl)cc2Cl)nn1C`
100

Value wanted: Activity (Blumeria graminis f. sp. tritici) of entry `CO/C=C(/C(=O)OC)c1ccccc1COc1c(C)c(-c2ccc(C)cc2C)nn1C`
100

Value wanted: Activity (Blumeria graminis f. sp. tritici) of entry `CO/C=C(/C(=O)OC)c1ccccc1COc1c(C)c(-c2ccc(OCC(F)(F)F)cc2)nn1C`
100

Value wanted: Activity (Blumeria graminis f. sp. tritici) of entry `CO/C=C(/C(=O)OC)c1ccccc1COc1c(C)c(-c2ccc(C(C)(C)C)cc2)nn1C`
10

Value wanted: Activity (Blumeria graminis f. sp. tritici) of entry `CO/C=C(/C(=O)OC)c1ccccc1COc1c(C)c(-c2ccc(C)c(C)c2)nn1C`
100

Value wanted: Activity (Blumeria graminis f. sp. tritici) of entry `CO/C=C(/C(=O)OC)c1ccccc1COc1cc(-c2ccc(-c3ccc(Cl)cc3)cc2)nn1C`
95

Value wanted: Activity (Blumeria graminis f. sp. tritici) of entry `CO/C=C(/C(=O)OC)c1ccccc1COc1cc(-c2ccc(C)cc2C)nn1C`
100

---

Test system: Blumeria graminis f. sp. tritici
Experiment: Antifungal activity against Blumeria graminis f. sp. tritici infected seven-day-old wheat seedlings assessed as disease control at 1.56 mg/l after 7 days relative to control
Format: functional
Each entry below lists one item and its recorded Activity value.
API: value field is a number in %; no unit string.

Some solved entries appear below for comparison.
INSERT INTO measurements (structure_smiles_string, measured_attribute, observed) VALUES
  ('CO/C=C(/C(=O)OC)c1ccccc1COc1c(C)c(-c2ccc(Cl)cc2)nn1C', 'Activity', 100),
  ('CO/C=C(/C(=O)OC)c1ccccc1COc1cc(-c2ccc(C)cc2)nn1C', 'Activity', 0),
  ('CO/C=C(/C(=O)OC)c1ccccc1Oc1cc(Oc2ccccc2C#N)ncn1', 'Activity', 60),
  ('CO/C=C(/C(=O)OC)c1ccccc1COc1c(C)c(-c2ccc(C)cc2C)nn1C', 'Activity', 90),
  ('CO/C=C(/C(=O)OC)c1ccccc1COc1cc(-c2ccc([N+](=O)[O-])cc2)nn1C', 'Activity', 95);

Value wanted: Activity (Blumeria graminis f. sp. tritici) of entry `CO/C=C(/C(=O)OC)c1ccccc1COc1cc(-c2ccc(-c3ccc(Cl)cc3)cc2)nn1C`
0

Value wanted: Activity (Blumeria graminis f. sp. tritici) of entry `CO/C=C(/C(=O)OC)c1ccccc1COc1c(C)c(-c2ccc(C(C)(C)C)cc2)nn1C`
0

Value wanted: Activity (Blumeria graminis f. sp. tritici) of entry `CO/C=C(/C(=O)OC)c1ccccc1COc1c(C)c(-c2ccc(OC)cc2)nn1C`
95

---

Each entry below lists one item and its recorded Activity value.
Tested on: Tetranychus cinnabarinus
Test: Acaricidal activity against Tetranychus cinnabarinus (carmine spider mite) in kidney bean plants assessed as mortality at 38 mg/l after 48 hr relative to control
Assay type: functional
API: value field is a number in %; no unit string.

Some solved entries appear below for comparison.
INSERT INTO measurements (structure_smiles_string, observed) VALUES
  ('CO/C=C(/C(=O)OC)c1ccccc1COc1cc(-c2ccc(C)c(C)c2)nn1C', 0),
  ('CO/C=C(/C(=O)OC)c1ccccc1COc1c(C)c(-c2ccc(C)cc2C)nn1C', 100),
  ('CO/C=C(/C(=O)OC)c1ccccc1COc1cc(-c2ccc(Cl)cc2)nn1C', 0),
  ('CO/C=C(/C(=O)OC)c1ccccc1COc1cc(-c2ccccc2Cl)nn1C', 0);

Value wanted: Activity (Tetranychus cinnabarinus) of entry `CCOc1ccc(-c2nn(C)c(OCc3ccccc3/C(=C\OC)C(=O)OC)c2C)cc1`
20

---

Tested on: Pseudoperonospora cubensis
Assay: Antifungal activity against Pseudoperonospora cubensis infected cucumber leaves assessed as disease control at 25 mg/l after 5 days relative to control
Assay type: functional
Measured Attribute: Activity

Some solved entries appear below for comparison.
INSERT INTO assay_data (structure_smiles_string, observed) VALUES
  ('CO/C=C(/C(=O)OC)c1ccccc1COc1cc(-c2ccccc2Cl)nn1C', '100%'),
  ('CO/C=C(/C(=O)OC)c1ccccc1COc1c(C)c(-c2ccc(OC)cc2)nn1C', '100%'),
  ('CO/C=C(/C(=O)OC)c1ccccc1COc1c(C)c(-c2ccc(OCC(F)(F)F)cc2)nn1C', '40%'),
  ('CO/C=C(/C(=O)OC)c1ccccc1COc1c(C)c(-c2ccccc2)nn1C', '100%'),
  ('CO/C=C(/C(=O)OC)c1ccccc1COc1cc(-c2ccc(OC)cc2)nn1C', '90%');

Record request: Activity value, item `CO/C=C(/C(=O)OC)c1ccccc1COc1c(C)c(-c2ccc(C)cc2)nn1C`
100%

Record request: Activity value, item `CO/N=C(/C(=O)OC)c1ccccc1COc1ccccc1C`
35%

Record request: Activity value, item `CO/C=C(/C(=O)OC)c1ccccc1COc1cc(-c2ccc(Cl)cc2Cl)nn1C`
100%

Record request: Activity value, item `CO/C=C(/C(=O)OC)c1ccccc1COc1cc(-c2ccc(Cl)cc2)nn1C`
100%

Record request: Activity value, item `CO/C=C(/C(=O)OC)c1ccccc1COc1cc(-c2ccc(OCC(F)(F)F)cc2)nn1C`
90%

Record request: Activity value, item `CO/C=C(/C(=O)OC)c1ccccc1COc1cc(-c2ccc(SC)cc2)nn1C`
100%

Record request: Activity value, item `CCc1ccc(-c2nn(C)c(OCc3ccccc3/C(=C\OC)C(=O)OC)c2C)cc1`
100%

Record request: Activity value, item `CO/C=C(/C(=O)OC)c1ccccc1COc1cc(-c2ccc([N+](=O)[O-])cc2)nn1C`
100%

Record request: Activity value, item `CO/C=C(/C(=O)OC)c1ccccc1Oc1cc(Oc2ccccc2C#N)ncn1`
100%

Record request: Activity value, item `CO/C=C(/C(=O)OC)c1ccccc1COc1c(C)c(-c2ccc(Cl)cc2)nn1C`
0%

Record request: Activity value, item `CO/C=C(/C(=O)OC)c1ccccc1COc1cc(-c2ccc(Br)cc2)nn1C`
100%

Record request: Activity value, item `CO/C=C(/C(=O)OC)c1ccccc1COc1cc(-c2ccc(C)c(C)c2)nn1C`
100%

Record request: Activity value, item `CO/C=C(/C(=O)OC)c1ccccc1COc1c(C)c(-c2cc(C)ccc2C)nn1C`
80%

Record request: Activity value, item `CO/C=C(/C(=O)OC)c1ccccc1COc1cc(-c2ccc(C(C)(C)C)cc2)nn1C`
15%

Record request: Activity value, item `CO/C=C(/C(=O)OC)c1ccccc1COc1c(C)c(-c2ccc(C)c(C)c2)nn1C`
100%

---

Test system: Pseudoperonospora cubensis
Assay: Antifungal activity against Pseudoperonospora cubensis infected cucumber leaves assessed as disease control at 25 mg/l after 5 days relative to control
Format: functional
Measured Attribute: Activity (%)
API: value field is a number in %; no unit string.

Some solved entries appear below for comparison.
INSERT INTO assay_data (structure_smiles_string, measured_attribute, observed) VALUES
  ('CO/C=C(/C(=O)OC)c1ccccc1COc1c(C)c(-c2ccc(C(C)(C)C)cc2)nn1C', 'Activity', 20),
  ('CO/C=C(/C(=O)OC)c1ccccc1COc1cc(-c2ccc(Oc3ccccc3)cc2)nn1C', 'Activity', 100),
  ('CO/C=C(/C(=O)OC)c1ccccc1COc1c(C)c(-c2ccc(C)cc2C)nn1C', 'Activity', 100),
  ('CO/C=C(/C(=O)OC)c1ccccc1COc1cc(-c2ccccc2OC)nn1C', 'Activity', 50),
  ('CO/C=C(/C(=O)OC)c1ccccc1COc1cc(-c2ccc(C)cc2C)nn1C', 'Activity', 100);

Record request: Activity value, item `CO/C=C(/C(=O)OC)c1ccccc1COc1cc(-c2ccc(C)cc2)nn1C`
0

Record request: Activity value, item `CO/C=C(/C(=O)OC)c1ccccc1COc1cc(-c2ccccc2)nn1C`
0

Record request: Activity value, item `CCOc1ccc(-c2nn(C)c(OCc3ccccc3/C(=C\OC)C(=O)OC)c2C)cc1`
50

Record request: Activity value, item `CO/C=C(/C(=O)OC)c1ccccc1COc1cc(-c2ccc(F)cc2)nn1C`
100

Record request: Activity value, item `CO/C=C(/C(=O)OC)c1ccccc1COc1cc(-c2ccc(-c3ccc(Cl)cc3)cc2)nn1C`
100

From: ChEMBL document CHEMBL3045550
